Origin of the recorded values: patent US10669268B2

# system: ATX (human His-tagged) (Homo sapiens (Human))
readout-label: IC50 (nM)

Answered examples (5):
In [3]: df
Out[3]:
                                   compound  readout_label  value
0  O=C(CCc1ccc(C(F)(F)F)nc1)N1C[C@@H]2CN(C(=O)c3ccc4[nH]nnc4c3)C[C@H]2C1           IC50     68
1  O=C(OCc1cc(Cl)cc(Cl)c1)N1C[C@@H]2CN(C(=O)C3CCc4[nH]nnc4C3)C[C@@H]2C1 (stereo partly shown)           IC50    226
2  COc1ccc(/C=C/C(=O)N2CC[C@@H]3CN(C(=O)c4ccc5[nH]nnc5c4)C[C@@H]3CC2)cc1           IC50     42
3  O=C(/C=C/c1ccc(OC(F)(F)F)cc1)N1C[C@H]2CCN(C(=O)c3ccc4[nH]nnc4c3)CC[C@H]2C1           IC50     34
4  O=C(OCCC1C2CC3CC(C2)CC1C3)N1C[C@@H]2CN(C(=O)c3ccc4[nH]nnc4c3)C[C@@H]2C1 (stereo partly shown)           IC50    398

P. O=C(/C=C/c1ccc(-c2ccccc2)cn1)N1C[C@@H]2CN(C(=O)c3ccc4[nH]nnc4c3)C[C@H]2C1
Q. CS(=O)(=O)c1cc(Cl)cc(COC(=O)N2CC[C@@H]3CN(C(=O)c4ccc5[nH]nnc5c4)C[C@H]3C2)c1 (relative stereo)
I would appreciate it if you could say which entry, P or Q , has the lower IC50 value. Refer to your chosen entry by its label in the reply.
P
(P: 12 nM, Q: 58 nM)
